Source: paper PMC11882969

Below: a set of entries, each annotated with reported Gi1 hCB1 response.
- measurement_target: hCB1 (Homo sapiens)
- Sequence (P21554 whole entry): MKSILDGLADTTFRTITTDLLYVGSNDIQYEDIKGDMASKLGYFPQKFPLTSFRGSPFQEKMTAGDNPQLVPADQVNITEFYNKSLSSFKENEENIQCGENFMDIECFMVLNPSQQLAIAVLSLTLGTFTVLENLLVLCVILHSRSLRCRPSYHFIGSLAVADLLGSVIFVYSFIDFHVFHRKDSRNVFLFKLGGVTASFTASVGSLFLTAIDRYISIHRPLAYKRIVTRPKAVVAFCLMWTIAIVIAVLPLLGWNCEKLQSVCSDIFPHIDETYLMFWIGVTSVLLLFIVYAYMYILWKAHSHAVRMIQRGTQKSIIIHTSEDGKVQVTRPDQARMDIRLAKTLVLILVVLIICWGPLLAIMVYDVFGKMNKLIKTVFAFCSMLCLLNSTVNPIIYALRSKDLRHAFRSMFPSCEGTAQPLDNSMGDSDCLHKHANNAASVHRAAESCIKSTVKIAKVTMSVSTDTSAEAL
- procedure_text: bioSensAll ebBRET signaling profiling, hCB1
- Format: cell-based
- Parameters: host or cells: HEK293SL cells, transient PEI transfection
- test_parameters: Gi1 biosensor; Log [Compound] (M) -12.3979
measured_parameter: Gi1 hCB1 response

* Cc1cc(C(=O)N2CC3(CCC3)[C@@H]2[C@H]2CCCO2)nn1-c1cccc(C(F)(F)F)c1 (single isomer, unassigned) | 1.4433
* Cc1cc(C(=O)NC(c2ccccc2)c2ccco2)nn1-c1cccc(C(F)(F)F)c1 (stereo not shown) | -3.011
* Cc1cc(C(=O)N(C)C(c2ccco2)c2ccco2)nn1-c1cccc(C(F)(F)F)c1 | 17.8713
* Cc1cc(C(=O)N2CC3(CCC3)[C@@H]2[C@@H]2CCCO2)nn1-c1cccc(C(F)(F)F)c1 | 3.01
